Test system: Pseudomonas aeruginosa
Experiment: Antibacterial activity against BL positive Pseudomonas aeruginosa PAO1 after 18 hrs by agar dilution assay
Assay type: functional
Conditions: PAO1, 18 h
Kindly supply the reported MIC values for the records listed here.

| molecule | MIC |
| --- | --- |
| C[C@H]1[C@H](NC(=O)/C(=N\OCc2cn(C)nn2)c2csc(N)n2)C(=O)N1S(=O)(=O)O (relative stereo) | > 128 µg/mL |
| CC1(C)[C@H](NC(=O)/C(=N\OCc2ccc(C(=O)O)cc2)c2csc(N)n2)C(=O)N1S(=O)(=O)O | > 64 µg/mL |
| CC1(C)[C@H](NC(=O)/C(=N\OCc2ccccc2)c2csc(N)n2)C(=O)N1S(=O)(=O)O | > 64 µg/mL |

Query: State the recorded MIC for this entry: `Cn1cc(CO/N=C(\C(=O)N[C@@H]2C(=O)N(S(=O)(=O)O)C2(C)C)c2csc(N)n2)nn1`
Response: > 64 µg/mL
